Would you mind telling me the reported inhibition of each entry?
Target: Adenosine receptor A1 (Homo sapiens) (UniProt P30542)
Sequence (whole entry): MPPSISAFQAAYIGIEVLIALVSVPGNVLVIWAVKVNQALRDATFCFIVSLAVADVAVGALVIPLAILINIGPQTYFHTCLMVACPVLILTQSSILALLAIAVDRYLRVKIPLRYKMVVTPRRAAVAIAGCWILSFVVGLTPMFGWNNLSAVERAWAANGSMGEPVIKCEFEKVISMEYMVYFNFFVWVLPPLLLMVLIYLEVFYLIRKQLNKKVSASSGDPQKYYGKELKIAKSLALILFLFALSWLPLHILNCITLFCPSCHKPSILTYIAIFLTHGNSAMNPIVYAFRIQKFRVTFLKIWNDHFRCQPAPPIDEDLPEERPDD
Assay: Ability to displace the binding of [3H]DPCPX to the ligand binding site of CHO:hA1 (human Adenosine A1 receptor) at concentration of 10 uM

Q: Which inhibition value is on record for Nc1sc2c(c1C(=O)c1ccc3ccccc3c1)CCN(Cc1ccccc1)C2 ?
A: 2.5%

Q: Record request: inhibition value, item Nc1sc2c(c1C(=O)c1ccc3ccccc3c1)CCCC2
A: 3.3%

Q: I'd like to know its inhibition. The compound in question is Nc1sc2c(c1C(=O)c1ccc3ccccc3c1)CCN(Cc1ccccc1F)C2
A: 3%

Q: So what does the record say about inhibition for Cc1sc(N)c(C(=O)c2cc(C)c3cc(Cl)ccc3c2)c1C ?
A: 4%

Q: // query inhibition value for entry Nc1sc2c(c1C(=O)c1cccc3ccccc13)CCC2
A: 8%

Q: Requested field: inhibition. Item: Nc1sc2c(c1C(=O)c1ccc3ccccc3c1)CCC2
A: 14.5%

Q: Dear colleague, I am looking for the recorded inhibition of the following compound: Cc1sc(N)c(C(=O)c2cccc(C(F)(F)F)c2)c1C
A: -0%
